The origin of these recorded values is patent US10526327B2.

measured on: JMJD2C (Homo sapiens)
Sequence (Q9H3R0 2-372): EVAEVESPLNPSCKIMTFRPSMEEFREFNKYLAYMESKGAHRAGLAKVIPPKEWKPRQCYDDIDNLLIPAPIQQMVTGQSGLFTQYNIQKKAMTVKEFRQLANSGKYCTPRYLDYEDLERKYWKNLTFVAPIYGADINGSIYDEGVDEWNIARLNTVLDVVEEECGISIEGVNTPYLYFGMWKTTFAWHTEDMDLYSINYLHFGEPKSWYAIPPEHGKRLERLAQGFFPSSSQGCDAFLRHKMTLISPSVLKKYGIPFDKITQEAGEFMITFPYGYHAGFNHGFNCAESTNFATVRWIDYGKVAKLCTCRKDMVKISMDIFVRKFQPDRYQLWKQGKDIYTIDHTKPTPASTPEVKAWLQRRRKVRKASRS
Could you please report measured IC50 for the items listed next?

Entry O=C(C1CC1)N1CCC(n2cc(Oc3nc(O)c4ccncc4n3)cn2)CC1 [Example 92] , IC50 reported as ≤ 100 nM

Per the record, CCOc1nc(O)c2ccncc2n1 [Example 2, 2-ethoxypyrido[3,4-d]pyrimidin-4-ol] has IC50 of 100 to 1000 nM

For record Cn1cnc(-c2nccc3c(O)nc(O[C@H](c4ccccc4)C(F)(F)F)nc23)c1 [Example 108] the listed IC50 is 100 to 1000 nM

Oc1nc(OCc2ccccc2)nc2cnccc12 [Example 4] has a reported IC50 of 100 to 1000 nM

Looking up Cn1cnc(-c2nccc3c(O)nc(OCC4CC4)nc23)c1 [Example 72] , I found its IC50 recorded as 100 to 1000 nM

----------
What IC50 was measured for each of the following?
Protein target, amino acids: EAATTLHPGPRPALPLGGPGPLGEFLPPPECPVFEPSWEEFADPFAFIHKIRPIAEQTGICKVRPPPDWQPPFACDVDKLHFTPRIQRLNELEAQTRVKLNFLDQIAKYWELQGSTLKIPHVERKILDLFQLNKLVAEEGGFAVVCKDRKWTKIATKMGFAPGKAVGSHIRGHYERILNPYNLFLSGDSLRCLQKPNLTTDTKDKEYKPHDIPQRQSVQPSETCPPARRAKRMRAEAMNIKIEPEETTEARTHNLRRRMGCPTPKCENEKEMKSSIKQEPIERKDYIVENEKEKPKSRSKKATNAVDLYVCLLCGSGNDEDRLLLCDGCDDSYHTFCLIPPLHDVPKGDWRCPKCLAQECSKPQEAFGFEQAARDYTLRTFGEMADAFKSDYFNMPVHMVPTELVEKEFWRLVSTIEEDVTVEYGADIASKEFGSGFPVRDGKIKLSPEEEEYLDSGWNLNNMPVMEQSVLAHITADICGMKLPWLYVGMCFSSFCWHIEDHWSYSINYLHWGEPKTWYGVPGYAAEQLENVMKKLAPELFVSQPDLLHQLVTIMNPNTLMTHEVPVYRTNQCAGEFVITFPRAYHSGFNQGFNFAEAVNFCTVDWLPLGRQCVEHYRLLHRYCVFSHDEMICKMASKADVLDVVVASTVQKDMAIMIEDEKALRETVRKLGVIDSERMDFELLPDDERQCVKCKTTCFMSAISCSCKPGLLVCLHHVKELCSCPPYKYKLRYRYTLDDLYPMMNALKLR

"Cn1cnc(-c2nccc3c(O)nc(OCc4ccccc4C(F)(F)F)nc23)c1" yielded IC50 of ≤ 100 nM

Sure, the documented IC50 for "Oc1nc(Oc2cnn(Cc3ccccc3)c2)nc2cnccc12" is ≤ 100 nM

IC50 reported for this compound "Oc1nc(Oc2cnn(C3CCCC3)c2)nc2cnccc12" : ≤ 100 nM

IC50 in this record for "Oc1nc(OC2CCCC2)nc2cnccc12" : 100 to 1000 nM

"Oc1nc(OCc2ccccc2Cl)nc2cnccc12" has a reported IC50 of 100 to 1000 nM

Consider Oc1nc(OCC2CCc3ccccc3C2)nc2cnccc12 (stereo not drawn) . Its measured IC50 is 100 to 1000 nM

Kindly note the recorded IC50 for Cn1cnc(-c2nccc3c(O)nc(OCC4CCOC4)nc23)c1 (stereo not drawn) , which is ≤ 100 nM

Form field IC50, entry "Cn1cnc(-c2nccc3c(O)nc(OCc4ccccc4Cl)nc23)c1" : ≤ 100 nM

Measured IC50, CCC(Oc1nc(O)c2ccnc(-c3cn(C)cn3)c2n1)C(F)(F)F (stereo not drawn) : 100 to 1000 nM

Note to self: IC50 recorded for "Cn1cnc(-c2nccc3c(O)nc(OCc4ccc(C(F)(F)F)cc4)nc23)c1" was 100 to 1000 nM

For this compound ( "Oc1nc(Oc2cnn([C@H]3CCN(c4ccccc4)C3)c2)nc2cnccc12" ), measured IC50 is ≤ 100 nM

// recorded IC50 for "Oc1nc(Oc2cnn([C@H]3CCCNC3)c2)nc2cnccc12" : ≤ 100 nM

The compound listed as "Oc1nc(OC2Cc3ccccc3C2)nc2cnccc12" shows IC50 equal to 100 to 1000 nM

Form field IC50, entry "O=S(=O)(c1ccccc1)N1CCC[C@H](n2cc(Oc3nc(O)c4ccncc4n3)cn2)C1" : ≤ 100 nM

Entry under test: "Oc1nc(OCCC(F)(F)F)nc2cnccc12" . Its IC50 was 100 to 1000 nM

"C[C@@H](c1ccccc1)n1cc(Oc2nc(O)c3ccncc3n2)cn1" yielded IC50 of ≤ 100 nM

The compound listed as "Oc1nc(OCc2cccc(Cl)c2Cl)nc2cnccc12" has a reported IC50 of 1000 to 10000 nM

Short answer for "CC(C)c1cccc(Oc2nc(O)c3ccncc3n2)c1" : IC50 was ≤ 100 nM

Form field IC50, entry "Oc1nc(OCc2ccccc2-c2ccccc2)nc2cnccc12" : 1000 to 10000 nM

// IC50 lookup, compound = "CC(C)CCOc1nc(O)c2ccncc2n1" , result: ≤ 100 nM

So for "O=C(c1ccccc1)N1CCC[C@H](n2cc(Oc3nc(O)c4ccncc4n3)cn2)C1" , the logged IC50 turned out to be ≤ 100 nM

Sample "CCS(=O)(=O)N1CCC[C@H](n2cc(Oc3nc(O)c4ccncc4n3)cn2)C1" ; IC50 observed: ≤ 100 nM

// IC50 lookup, compound = "CCCOc1nc(O)c2ccncc2n1" , result: 100 to 1000 nM

"Cn1cnc(-c2nccc3c(O)nc(Oc4cnn(C5CCOCC5)c4)nc23)c1" yielded IC50 of ≤ 100 nM

The value of IC50 measured for the compound "Oc1nc(Oc2cccc(F)c2F)nc2cnccc12" turned out to be 100 to 1000 nM

# IC50 of CCC(C)COc1nc(O)c2ccncc2n1 (stereo not drawn) = 100 to 1000 nM

So, "CCn1cc(Oc2nc(O)c3ccncc3n2)cn1" ? Its IC50 was ≤ 100 nM

Notebook: "Oc1nc(Oc2cnn(C3CCN(Cc4ccccc4)CC3)c2)nc2cnccc12" , IC50 read as ≤ 100 nM

The reported value for "O=C(c1ccccc1)N1CC[C@H](n2cc(Oc3nc(O)c4ccncc4n3)cn2)C1" in terms of IC50 is ≤ 100 nM

IC50 reported for this compound "Oc1nc(Oc2cnn(Cc3ccccc3F)c2)nc2cnccc12" : ≤ 100 nM

Quick note, IC50 for "CC(=O)Nc1ccc(Oc2nc(O)c3ccncc3n2)cc1" landed at ≤ 100 nM

Sample "O=C(c1ccccc1)N1CCC[C@@H](n2cc(Oc3nc(O)c4ccncc4n3)cn2)C1" ; IC50 observed: ≤ 100 nM

Consider "COCCn1ncc2ccc(Oc3nc(O)c4ccncc4n3)cc21" . Its measured IC50 is ≤ 100 nM

The compound "Oc1nc(Oc2cnn(C3CCNCC3)c2)nc2cnccc12" showed IC50 equal to ≤ 100 nM

Lab note: measured IC50 of "Oc1nc(Oc2cnn(Cc3cccc(Cl)c3)c2)nc2cnccc12" was ≤ 100 nM

Measured IC50, "Oc1nc(OCc2ccccc2F)nc2cnccc12" : 1000 to 10000 nM

Sample "CC(=O)N(C)CCOc1nc(O)c2ccncc2n1" ; IC50 observed: 100 to 1000 nM

Looking up "Oc1nc(OCC2CC2)nc2cnccc12" , I see its IC50 listed as 100 to 1000 nM

GET /value?item= "Oc1nc(OCc2ccccc2)nc2cnccc12" &field=IC50 returns 100 to 1000 nM

----------
measured on: Jarid1B (Homo sapiens)
Sequence (Q9UGL1 2-751): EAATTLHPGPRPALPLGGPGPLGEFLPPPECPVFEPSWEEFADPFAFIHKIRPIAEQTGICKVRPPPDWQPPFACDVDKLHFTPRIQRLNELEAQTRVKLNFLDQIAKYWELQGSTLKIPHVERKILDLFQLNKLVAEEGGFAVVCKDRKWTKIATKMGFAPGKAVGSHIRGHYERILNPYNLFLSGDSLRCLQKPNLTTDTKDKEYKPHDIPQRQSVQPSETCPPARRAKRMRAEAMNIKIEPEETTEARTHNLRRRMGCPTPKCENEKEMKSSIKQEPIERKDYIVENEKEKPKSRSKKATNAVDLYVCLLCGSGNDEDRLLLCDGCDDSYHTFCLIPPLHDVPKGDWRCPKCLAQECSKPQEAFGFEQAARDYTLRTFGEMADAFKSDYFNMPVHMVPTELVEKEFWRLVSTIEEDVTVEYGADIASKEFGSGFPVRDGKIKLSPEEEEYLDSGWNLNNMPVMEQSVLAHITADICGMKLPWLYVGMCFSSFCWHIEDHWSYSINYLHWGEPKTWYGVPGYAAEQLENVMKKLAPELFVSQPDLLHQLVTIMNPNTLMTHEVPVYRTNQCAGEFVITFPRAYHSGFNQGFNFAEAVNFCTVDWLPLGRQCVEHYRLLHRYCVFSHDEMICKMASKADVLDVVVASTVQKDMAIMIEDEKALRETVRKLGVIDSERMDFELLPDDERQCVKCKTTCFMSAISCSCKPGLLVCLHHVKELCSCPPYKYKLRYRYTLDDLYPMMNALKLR
measure: IC50

IC50 for "Oc1nc(OCCCC(F)(F)F)nc2cnccc12" is ≤ 100 nM

For record Oc1nc(OC2CCCc3ccccc32)nc2cnccc12 (centres unmarked) the listed IC50 is 1000 to 10000 nM

The recorded IC50 for entry "Oc1nc(Oc2ccc(F)cc2)nc2cnccc12" equals ≤ 100 nM

IC50 in this record for "Oc1nc(Oc2ccnc(N3CCOCC3)c2)nc2cnccc12" : ≤ 100 nM

Measured IC50 of "Oc1nc(OCc2c(Cl)cccc2Cl)nc2cnccc12" : 1000 to 10000 nM
